# experimental protocol: in vitro
# details: African green monkey
reported metric: CC50

[
  {
    "compound": "CCN(CC)CCCC(C)Nc1ccnc2cc(Cl)ccc12 (stereo not shown) [Chloroquine phosphate]",
    "result": "> 100 µM"
  }
]

###

# Tested on: SARS-CoV-2 B.1.1.7 (Alpha)
# Assay type: cell-based
# details: Vero E6 cells, mean ± SD
reported metric: EC50 (nM)

[
  {
    "molecule": "CC(C)(C)[C@H](NC(=O)C(F)(F)F)C(=O)N1C[C@H]2[C@@H]([C@H]1C(=O)N[C@H](C#N)C[C@@H]1CCNC1=O)C2(C)C [PF-07321332, reference compound]",
    "result": 820
  },
  {
    "molecule": "O=C[C@H](C[C@@H]1CCNC1=O)NC(=O)[C@H](CC1CCCCC1)NC(=O)c1cc2ccccc2[nH]1 [FB2001]",
    "result": 390
  }
]
